Data origin, for the record: patent US20240384268A1

A collection of substances and their measured TLR7-100 nM: averaged NF-κB-Luciferase relative to R848
# SYSTEM_TESTED: human TLR7 (Homo sapiens)
# Construct: HA; host or cells: 293XL-hTLR7-HA (HEK293)
# Sequence (Q9NYK1 27-1049): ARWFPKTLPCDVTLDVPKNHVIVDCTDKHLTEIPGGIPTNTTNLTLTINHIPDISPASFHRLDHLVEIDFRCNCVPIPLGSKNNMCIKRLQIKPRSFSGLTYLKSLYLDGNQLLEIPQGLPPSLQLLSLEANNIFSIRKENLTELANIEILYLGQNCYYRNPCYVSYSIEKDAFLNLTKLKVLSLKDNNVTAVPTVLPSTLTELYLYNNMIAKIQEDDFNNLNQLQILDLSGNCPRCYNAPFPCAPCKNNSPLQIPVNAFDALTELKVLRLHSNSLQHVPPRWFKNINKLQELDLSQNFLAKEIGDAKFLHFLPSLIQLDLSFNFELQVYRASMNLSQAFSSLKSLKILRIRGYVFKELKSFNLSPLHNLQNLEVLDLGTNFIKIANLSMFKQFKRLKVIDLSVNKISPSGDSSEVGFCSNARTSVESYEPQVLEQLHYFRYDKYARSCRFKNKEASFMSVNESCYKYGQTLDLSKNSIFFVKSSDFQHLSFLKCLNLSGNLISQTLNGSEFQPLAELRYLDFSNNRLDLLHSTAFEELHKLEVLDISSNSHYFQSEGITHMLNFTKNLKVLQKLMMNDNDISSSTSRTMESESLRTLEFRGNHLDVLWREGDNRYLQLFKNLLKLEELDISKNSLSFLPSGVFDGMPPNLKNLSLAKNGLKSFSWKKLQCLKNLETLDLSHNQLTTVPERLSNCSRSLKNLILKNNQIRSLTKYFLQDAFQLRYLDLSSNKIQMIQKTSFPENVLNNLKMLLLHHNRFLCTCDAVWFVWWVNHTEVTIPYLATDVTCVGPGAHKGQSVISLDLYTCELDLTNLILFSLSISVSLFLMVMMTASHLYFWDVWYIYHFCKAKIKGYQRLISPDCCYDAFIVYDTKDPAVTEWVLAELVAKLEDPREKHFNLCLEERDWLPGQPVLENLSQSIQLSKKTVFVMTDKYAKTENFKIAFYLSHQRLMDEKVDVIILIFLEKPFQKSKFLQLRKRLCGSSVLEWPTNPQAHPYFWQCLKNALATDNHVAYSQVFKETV
# PROTOCOL_TEXT: HEK-TLR7 NF-κB-luciferase reporter, R848 stimulation
# Assay type: cell-based
# APPLIED_CONDITIONS: HEK-TLR7; 100 nM ASO; percentage of R848 without ASO (Alharbi et al., 2020)
In the oligonucleotide strings, read from the 5' end, every base follows the letter of its sugar. An asterisk marks phosphorothioate; unmarked linkages are phosphodiester. Other units and linkages are bracketed, terminal groups are in braces. A string of capitals states the bases alone. d = 2'-deoxy (DNA); m = 2'-O-methyl
PROPERTY_LABEL: TLR7-100 nM: averaged NF-κB-Luciferase relative to R848 (%)

{"SUBSTANCE": "mU*mC*mU*mC*mU*C*T*G*G*T*C*C*C*A*T*mC*mC*mC*mU*mU (mU*mC*mU*mC*mU*dC*dT*dG*dG*dT*dC*dC*dC*dA*dT*mC*mC*mC*mU*mU; antisense) [[LINC-PINT]110]", "UNIT_ABBREVIATION": "%", "REPORTED_VALUE": 43.82}
{"SUBSTANCE": "mU*mU*mG*mU*mG*A*A*A*A*G*A*T*T*A*T*mC*mU*mU*mC*mU (mU*mU*mG*mU*mG*dA*dA*dA*dA*dG*dA*dT*dT*dA*dT*mC*mU*mU*mC*mU) [[CDKN2B-AS1]2138]", "UNIT_ABBREVIATION": "%", "REPORTED_VALUE": 35.02}
{"SUBSTANCE": "mG*mU*mG*mU*mC*C*T*T*C*A*T*G*C*T*T*mU*mG*mG*mA*mU (GUGUCCTTCATGCTTUGGAU; antisense; sugars from the 5' end m5 d10 m5, all phosphorothioate, methylation of C not given here) [[CDKN2B-AS1]1415]", "UNIT_ABBREVIATION": "%", "REPORTED_VALUE": 18.05}
{"SUBSTANCE": "mG*mU*mC*mU*mC*C*A*T*G*T*C*C*C*A*G*mG*mC*mC*mU*mC (mG*mU*mC*mU*mC*dC*dA*dT*dG*dT*dC*dC*dC*dA*dG*mG*mC*mC*mU*mC) [[CDKN2B;AS1]2231]", "UNIT_ABBREVIATION": "%", "REPORTED_VALUE": 23.75}
{"SUBSTANCE": "mA*mC*mC*mC*mU*T*C*T*C*T*C*T*G*G*T*mC*mC*mC*mA*mU (mA*mC*mC*mC*mU*dT*dC*dT*dC*dT*dC*dT*dG*dG*dT*mC*mC*mC*mA*mU; antisense) [[LINC-PINT]115]", "UNIT_ABBREVIATION": "%", "REPORTED_VALUE": 43.37}
{"SUBSTANCE": "mA*mA*mA*mG*mA*T*T*A*T*C*T*T*C*T*T*mU*mU*mA*mA*mU (mA*mA*mA*mG*mA*dT*dT*dA*dT*dC*dT*dT*dC*dT*dT*mU*mU*mA*mA*mU) [[CDKN2B-AS1]2132]", "UNIT_ABBREVIATION": "%", "REPORTED_VALUE": 49.28}
